// reported inhibition at 0.1 µM for each item listed
# Tested on: TNF-α secretion, peripheral blood mononuclear cells (PBMCs)
# protocol.text: Suppression of TNF-α secretion in LPS-treated PBMCs (ELISA)
# Type: cell-based
# experimental.parameters: PBMC, 0.1 μM, 100 ng/ml LPS, 24 hours, read-out: TNF-α, % inhibition degree
Kindly provide the numeric value in % only, without the unit symbol.

// worked examples, inhibition at 0.1 µM included
| structure.notation | inhibition at 0.1 µM, % |
| --- | --- |
| Cn1cc(-c2ccc3[nH]c4ncnc(N[C@H]5CC[C@H](N6CCOCC6)CC5)c4c3c2)cn1 | 10.5 |
| Fc1ccc(-c2ccc3[nH]c4ncnc(N[C@H]5CC[C@H](N6CCOCC6)CC5)c4c3c2)c(F)c1 | 5 |
| c1ncc(-c2ccc3[nH]c4ncnc(N[C@H]5CC[C@H](N6CCOCC6)CC5)c4c3c2)cn1 | 24 |

[Q] Short answer please: inhibition at 0.1 µM, TNF-α secretion, peripheral blood mononuclear cells (PBMCs), entry `c1cc(-c2ccc3[nH]c4ncnc(Nc5ccc(N6CCNCC6)cc5)c4c3c2)ccn1`
[A] 26

###

# Test system: ISG promoter, THP1-Lucia™ ISG cell line
# protocol.text: ISG promoter inhibition, THP1-Lucia ISG cell line
# Format: cell-based
# experimental.parameters: 0.1 μM, 1 μg/ml Poly(dA:dT)/LyoVec, 24 hours, read-out: ISG, % inhibition degree
// reported inhibition at 0.1 µM for each item listed
Kindly provide the numeric value in % only, without the unit symbol.

// worked examples, inhibition at 0.1 µM included
| molecule | units.label | inhibition at 0.1 µM |
| --- | --- | --- |
| CN(C)CCOc1cncc(-c2ccc3[nH]c4ncnc(N[C@H]5CC[C@H](N6CCOCC6)CC5)c4c3c2)c1 [Compound 6aag] | % | 20 |
| Cn1cc(-c2ccc3[nH]c4ncnc(N[C@H]5CC[C@H](N6CCOCC6)CC5)c4c3c2)cn1 [Compound 6aaa] | % | 17 |

[Q] Item CCOC(=O)c1ccc2[nH]c3ncnc(N[C@H]4CC[C@H](N(C)C)CC4)c3c2c1 [Compound 5bb] has what recorded inhibition at 0.1 µM?
[A] 43

###

Target sequence: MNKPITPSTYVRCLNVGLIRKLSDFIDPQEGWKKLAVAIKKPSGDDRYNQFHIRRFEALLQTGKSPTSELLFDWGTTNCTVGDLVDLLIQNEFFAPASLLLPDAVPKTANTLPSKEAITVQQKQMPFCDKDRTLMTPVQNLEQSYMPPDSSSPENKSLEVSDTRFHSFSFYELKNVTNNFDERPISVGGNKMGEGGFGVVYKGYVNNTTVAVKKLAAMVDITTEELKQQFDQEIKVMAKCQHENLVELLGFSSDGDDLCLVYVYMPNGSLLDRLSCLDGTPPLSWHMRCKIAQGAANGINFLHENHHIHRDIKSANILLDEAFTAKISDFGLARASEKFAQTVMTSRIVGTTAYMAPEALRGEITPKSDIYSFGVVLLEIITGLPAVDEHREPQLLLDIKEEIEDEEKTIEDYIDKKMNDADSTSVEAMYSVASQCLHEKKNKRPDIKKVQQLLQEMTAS
pIC50: −log10 of the molar value.
Label scheme for pIC50: lower than 7 is rule not met, 7 and above is rule met.

| compound | group |
| --- | --- |
| COc1cncc(-c2ccc3[nH]c4nccc(N[C@H]5CC[C@H](N6CCN(S(C)(=O)=O)CC6)CC5)c4c3c2)c1 [Compound 17c] | rule met |
| Cn1cc(-c2ccc3[nH]c4ncnc(N[C@H]5CC[C@H](N6CCOCC6)CC5)c4c3c2)cn1 | rule met |

[Q] In plain terms: is recorded pIC50 at least 7 for `Cc1nnc(-c2ccc3[nH]c4ncnc(N[C@H]5CC[C@H](N6CCOCC6)CC5)c4c3c2)[nH]1` ?
[A] rule not met

[Q] In plain terms: is recorded pIC50 at least 7 for `Cn1cnnc1-c1ccc2[nH]c3ncnc(N[C@H]4CC[C@H](N5CCOCC5)CC4)c3c2c1` ?
[A] rule not met

[Q] In plain terms: is recorded pIC50 at least 7 for `CN(C)CCOc1cncc(-c2ccc3[nH]c4ncnc(N[C@H]5CC[C@H](N6CCOCC6)CC5)c4c3c2)c1` ?
[A] rule met

###

# Tested on: IFN-α secretion, peripheral blood mononuclear cells (PBMCs)
# protocol.text: Suppression of IFN-α secretion in ODN2216-treated PBMCs (ELISA)
# Format: cell-based
# experimental.parameters: PBMC, 0.1 μM, 500 nM ODN2216, 72 hours, read-out: IFN-α, % inhibition degree
measure: inhibition at 0.1 µM (%)
Kindly provide the numeric value in % only, without the unit symbol.

// worked examples, inhibition at 0.1 µM included
| compound | test.result |
| --- | --- |
| Fc1cc(F)cc(-c2ccc3[nH]c4ncnc(N[C@H]5CC[C@H](N6CCOCC6)CC5)c4c3c2)c1 [Compound 6aal] | 18 |
| Fc1ccc(-c2ccc3[nH]c4ncnc(N[C@H]5CC[C@H](N6CCOCC6)CC5)c4c3c2)c(F)c1 [Compound 6aam] | 9 |
| O=[N+]([O-])c1cccc(-c2ccc3[nH]c4ncnc(N[C@H]5CC[C@H](N6CCOCC6)CC5)c4c3c2)c1 [Compound 6aai] | 32 |

Now consider the entry below.
[Q] Item COc1cncc(-c2ccc3[nH]c4nccc(N[C@H]5CC[C@H](N6CCN(S(C)(=O)=O)CC6)CC5)c4c3c2)c1 [Compound 17c] has what recorded inhibition at 0.1 µM?
[A] 23

###

// reported inhibition at 0.1 µM for each item listed
# Test system: IFN-α secretion, peripheral blood mononuclear cells (PBMCs)
# protocol.text: Suppression of IFN-α secretion in ODN2216-treated PBMCs (ELISA)
# Assay type: cell-based
# experimental.parameters: PBMC, 0.1 μM, 500 nM ODN2216, 72 hours, read-out: IFN-α, % inhibition degree
Kindly provide the numeric value in % only, without the unit symbol.

| molecule | measured.target | measure | test.result |
| --- | --- | --- | --- |
| c1cc(-c2ccc3[nH]c4ncnc(Nc5ccc(N6CCNCC6)cc5)c4c3c2)ccn1 | IFN-α secretion, peripheral blood mononuclear cells (PBMCs) | inhibition at 0.1 µM | 56 |
| COC(=O)c1ccc2c(c1)[nH]c1ncnc(N[C@H]3CC[C@H](N4CCOCC4)CC3)c12 | IFN-α secretion, peripheral blood mononuclear cells (PBMCs) | inhibition at 0.1 µM | 10 |
| CCOC(=O)c1ccc2[nH]c3ncnc(N[C@H]4CC[C@H](N(C)C)CC4)c3c2c1 | IFN-α secretion, peripheral blood mononuclear cells (PBMCs) | inhibition at 0.1 µM | 27.3 |
| Cn1cc(-c2ccc3[nH]c4nccc(N[C@H]5CC[C@H](N6CCOCC6)CC5)c4c3c2)cn1 [Compound 17a] | IFN-α secretion, peripheral blood mononuclear cells (PBMCs) | inhibition at 0.1 µM | 67 |
| Cn1cc(-c2ccc3[nH]c4ncnc(N[C@H]5CC[C@H](N6CCOCC6)CC5)c4c3c2)cn1 | IFN-α secretion, peripheral blood mononuclear cells (PBMCs) | inhibition at 0.1 µM | 20 |
| CN(C)CCOc1cncc(-c2ccc3[nH]c4ncnc(N[C@H]5CC[C@H](N6CCOCC6)CC5)c4c3c2)c1 | IFN-α secretion, peripheral blood mononuclear cells (PBMCs) | inhibition at 0.1 µM | 6.4 |

Now consider the entry below.
[Q] Item `c1ncc(-c2ccc3[nH]c4ncnc(N[C@H]5CC[C@H](N6CCOCC6)CC5)c4c3c2)cn1` has what recorded inhibition at 0.1 µM?
[A] 21

###

Endpoint: log10(IC50). System: IRAK4 enzyme (Homo sapiens, UniProt Q9NWZ3). Items follow.
// do not treat as linear: log10 of IC50, unit nM

// worked examples, log10(IC50) included
| structure.notation | measured.target | log10(IC50) |
| --- | --- | --- |
| CCOC(=O)c1ccc2[nH]c3ncnc(N[C@H]4CC[C@H](N5CCOCC5)CC4)c3c2c1 | IRAK4 enzyme (Homo sapiens, UniProt Q9NWZ3) | 1.46 |
| c1cc(-c2ccc3[nH]c4ncnc(N[C@H]5CC[C@H](N6CCOCC6)CC5)c4c3c2)ccn1 | IRAK4 enzyme (Homo sapiens, UniProt Q9NWZ3) | 1.26 |
| O=[N+]([O-])c1cccc(-c2ccc3[nH]c4ncnc(N[C@H]5CC[C@H](N6CCOCC6)CC5)c4c3c2)c1 | IRAK4 enzyme (Homo sapiens, UniProt Q9NWZ3) | 1.83 |
| Oc1cncc(-c2ccc3[nH]c4ncnc(N[C@H]5CC[C@H](N6CCOCC6)CC5)c4c3c2)c1 | IRAK4 enzyme (Homo sapiens, UniProt Q9NWZ3) | 0.30 |
| c1ncc(-c2ccc3[nH]c4ncnc(N[C@H]5CC[C@H](N6CCOCC6)CC5)c4c3c2)cn1 | IRAK4 enzyme (Homo sapiens, UniProt Q9NWZ3) | 1.10 |

[Q] Item `COC(=O)c1ccc2c(c1)[nH]c1ncnc(N[C@H]3CC[C@H](N4CCOCC4)CC3)c12` has what recorded log10(IC50)?
[A] 2.11

[Q] Item `N#Cc1cc(F)cc(-c2ccc3[nH]c4ncnc(N[C@H]5CC[C@H](N6CCOCC6)CC5)c4c3c2)c1` has what recorded log10(IC50)?
[A] 2.89
